// protein stability index lookup, one value per entry
B1: ZBTB22 (parent)
chain: RPFDCPVCNKKFKMKHHLTEHMKT

Variants of: B1
Experimental Protocol: protein stability index of a GFP-peptide fusion (GPS, HEK-293T) (PSI 1-6); higher = more stable;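 also: lentivirally expressed fusions sorted by FACS into six bins by GFP to DsRed ratio, PSI derived from sequencing read proportions per bin multiplied by bin number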
Condition Details: c terminus: a fixed tail appended
Give the value as a plain number.

Examples with answers:
[
  {
    "Mutation Label": "K13A",
    "Experimental Result": 2.85
  },
  {
    "Mutation Label": "V7K",
    "Experimental Result": 2.96
  },
  {
    "Mutation Label": "C8Q",
    "Experimental Result": 2.81
  },
  {
    "Mutation Label": "K11V",
    "Experimental Result": 2.52
  },
  {
    "Mutation Label": "F3G",
    "Experimental Result": 2.49
  },
  {
    "Mutation Label": "E20L",
    "Experimental Result": 1.83
  },
  {
    "Mutation Label": "T19Q",
    "Experimental Result": 2.33
  },
  {
    "Mutation Label": "K15Q",
    "Experimental Result": 2.26
  },
  {
    "Mutation Label": "F3P",
    "Experimental Result": 2.74
  },
  {
    "Mutation Label": "L18R",
    "Experimental Result": 2.89
  }
]

Enquiry: What measured protein stability index goes with H17L ?
Return: 1.94

Enquiry: What measured protein stability index goes with H16S ?
Return: 2.83

Enquiry: What measured protein stability index goes with F12P ?
Return: 2.5

Enquiry: What measured protein stability index goes with M14K ?
Return: 2.93
